Each recorded value in this set is attributed to PubChem BioAssay (NCI).

- System: COLO 205 colon
- method summary: NCI-60 one-dose screen, 48 h
- experimental setup: 10 µM unless noted
Compounds without any hit were thinned out: in the full panel of roughly 83,000, 20% have a hit. Active and inactive are the calls of the source. Rule for the calls: active = growth percent below 10; inactive = the rest.
Answer with one of the outcomes given here: t = active, f = inactive

Examples with answers:
>  <compound>
C=C(C)[C@@H]1CC[C@]2(C(N)=O)CC[C@]3(C)[C@H](CC[C@@H]4[C@@]5(C)CCCNC(C)(C)[C@@H]5CC[C@]43C)[C@@H]12

>  <label value>
f

$$$$
>  <compound>
COc1cc(N=Nc2cc(S(=O)(=O)O)cc3cc(S(=O)(=O)O)cc(O)c23)c(C)cc1N=Nc1c(S(=O)(=O)O)cc2cc(Nc3ccccc3)ccc2c1O

>  <label value>
f

$$$$
>  <compound>
COC(=O)[C@]1(C)CCC[C@]2(C)[C@H]3C[C@H]4C(C(C)C)=C[C@]3(CC[C@H]21)[C@@H]1C(=O)N(CCC#N)C(=O)[C@@H]14

>  <label value>
f

$$$$

Query string: So what was the verdict on CCc1c(C(=O)N[C@@H](C(=O)OCc2ccccc2)C(C)O)[nH]c2ccc(Cl)cc12 (some centres not stated) in this test?
Result string: f

Query string: Hey, what did the test say about O=C(Nc1ccc2ncnc(Nc3ccc(F)c(Cl)c3)c2c1)c1ccccc1 ?
Result string: f

---

- System: A549/ATCC NSCLC
- method summary: NCI-60 one-dose screen, 48 h (100 = growth as untreated, 0 = no growth, -100 = all killed)
- experimental setup: 10 µM unless noted
- Experimental: Growth inhibition of the A549/ATCC human Non-Small Cell Lung tumor cell line is measured as a screen for anti-cancer activity. Cells are grown in 96 well plates and exposed to the test compound for 48 hours. Compounds are tested at a single concentration, which is 10^-5 M for most compounds. The reported endpoint is percent growth (GI% or GIPRCNT), where numbers from 0 - 100% represent growth inhibition, and numbers from -100% - 0 represent cell death. […]
The panel holds about 83,000 compounds, 20% with a hit somewhere; the sample as a whole holds those more often.
measured attribute: growth (%)
I only need the number, in %, no unit after it.

Example results:
>  <molecule>
COc1cc([C@H](C)c2ccc3ccccc3c2)cc(OC)c1OC

>  <result value>
24.6

$$$$
>  <molecule>
O=C(O)CCNC1CCCCC1

>  <result value>
102

$$$$
>  <molecule>
CSc1nc(-c2cccs2)c2c(N)[nH]nc2n1

>  <result value>
98.5

$$$$
>  <molecule>
CCCn1c2cc(OCc3cn(-c4ccc(Cl)cc4)nn3)ccc2c2ccnc(C)c21

>  <result value>
70.8

$$$$
>  <molecule>
COc1ccc(NC(=O)Nc2ccc(Nc3nc(C)cc(Nc4ccc(C)cc4)n3)cc2)cc1

>  <result value>
-83

$$$$

What the record says about COC(=O)c1ccc2c(c1)NC(=O)[C@@H]1CCCN21 : growth is 98.2

growth reading for COc1cccc(C(=O)OCCn2nc3c4c(cccc42)C(=O)c2ccccc2-3)c1O : 67.4

Notebook: COc1ccc2oc(=O)cc(-c3nc4ccc(N)cc4[nH]3)c2c1 , growth read as 90

For record CCOC(=O)c1sc(/N=C2\NC(=O)/C(=C/c3ccc(N4CCN(C)CC4)cc3)S2)nc1C the listed growth is 89.6

The molecule COc1ccc(N(C)c2nc(Cl)nc3ccn(C)c23)cc1 showed growth equal to 10.7

In plain terms, COC(=O)[C@]1(C)CCC[C@]2(C)[C@H]3C[C@H]4C(C(C)C)=C[C@]3(CC[C@H]21)[C@@H]1C(=O)N(CCC#N)C(=O)[C@@H]14 has a documented growth of 86

Short answer for O=C1CCC23OC(C(O)c4ccccc4N12)C1C(Br)=NOC13 (stereo unspecified) : growth was 99.7

For N#CC(C#N)=C1NC(c2ccccc2)=C(c2ccccc2)C(c2ccccc2Cl)=C1C#N the molecule record lists growth as 84

The molecule CC1(c2ccccc2Cl)NC(=O)NC1=O (stereo unspecified) showed growth equal to 91.2

Record summary for O=C(Nc1nc(-c2ccccc2Cl)cs1)c1cc(-c2ccc(Br)cc2)nc2ccccc12 : reported growth = 37.5

Sure, the documented growth for C#Cc1cccc(Nc2ncnc3ccc(NC(=O)c4ccccc4)cc23)c1 is 70.9

growth reading for CCCCCCN1C(=O)CN=C1Nc1ccc2cc3ccc(NC4=NCC(=O)N4CCCCCC)cc3nc2c1 : 74.5

Noted for O=c1[nH]c2ccccc2cc1-c1nc2ccncc2[nH]1 : its growth reads 90.4

Field growth (entry CCCCCCCc1n(Cc2ccc3ccccc3c2)c2ccccc2[n+]1Cc1ccc2ccccc2c1 ) reads -77.5

The molecule identified as C=C1C(=O)O[C@H]2[C@H]1CC/C(COC(=O)NCC(=O)Nc1ccc(OC)c(C(N)=O)c1O)=C\CC[C@@]1(C)O[C@@H]21 registered its growth at 86.3

Entry COc1ccc(Nc2cc(NC(=O)CNc3cc(OC)c(Cl)c(OC)c3Cl)ncn2)cc1 — recorded growth = 71.1

---

Documented growth across a set of compounds
- Test system: 786-0 renal
- method summary: NCI-60 one-dose screen, 48 h (100 = growth as untreated, 0 = no growth, -100 = all killed)
- experimental setup: 10 µM unless noted
This is part of a sample that, as a whole, favours compounds with a hit. Of some 83,000 tested, about 20% had one in any assay.
Numbers only here, please. The scale is %.

Take a look at these entries with their results.
>  <compound>
O=C1CC23OC(C(O)c4ccccc4N12)C1C(c2ccccc2)=NOC13 (stereo not drawn)

>  <measured attribute>
growth

>  <result value>
37.2

$$$$
>  <compound>
O=Cc1[nH]c(Sc2ccccc2)c2ccccc12

>  <measured attribute>
growth

>  <result value>
81.1

$$$$
>  <compound>
CCOC(=O)c1c(C)nc2c(c1N)/C(=C/c1ccc[nH]1)C(=O)N2Cc1ccc(C(F)(F)F)cc1

>  <measured attribute>
growth

>  <result value>
22.9

$$$$
>  <compound>
O=C(O)c1ccc(-n2cc(/C=N/Nc3ccc(Cl)cc3Cl)c(-c3ccccc3)n2)cc1

>  <measured attribute>
growth

>  <result value>
97.5

$$$$
>  <compound>
C#C[C@@]1(O)[C@@H](CO)O[C@@H](n2ccc3c(N)ncnc32)[C@@H]1O

>  <measured attribute>
growth

>  <result value>
4.14

$$$$

Measured growth of C=C1C(=O)O[C@H]2[C@H]1CC/C(C=Nc1c(N)cc(C(F)(F)F)cc1Br)=C\CC[C@@]1(C)O[C@@H]21 : -41.8

Reported growth for COc1cc(-c2csc(NC(=O)Nc3ccc(C(F)(F)F)cc3)n2)cc(OC)c1OC was -10

get_value(item= O=C(Nc1ccc(N=Cc2ccccc2O)cc1)NC1C=c2ccccc2=CC1 (stereo not drawn) , readout=growth) returns 98.2

---

- Test system: K-562 leukemia
- method summary: NCI-60 one-dose screen, 48 h (100 = growth as untreated, 0 = no growth, -100 = all killed)
- experimental setup: 10 µM unless noted
- Method: Cells are grown in 96 well plates and exposed to the test compound for 48 hours. Compounds are tested at a single concentration, which is 10^-5 M for most compounds. The reported endpoint is percent growth (GI% or GIPRCNT), where numbers from 0 - 100% represent growth inhibition, and numbers from -100% - 0 represent cell death. For example, a value of 40 represents 60% growth inhibition. A value of 0 means no net growth occurred over the course of the experiment. […]
Compounds without any hit were thinned out: in the full panel of roughly 83,000, 20% have a hit.
measured attribute: growth (%)
Only the number, expressed in %, is required.

See these solved cases before continuing.
>  <molecule>
CCOC(=O)C1=C(C)n2nc(CC#N)c(C#N)c2NC1c1ccc(CC)cc1 (centres undefined)

>  <result value>
106

$$$$
>  <molecule>
CCCn1c(N)c(C(N)=O)sc1=S

>  <result value>
119

$$$$
>  <molecule>
O=C(CCCC(=O)Nc1ccc(-n2nnc3cc(Cl)c(Cl)cc32)cc1)Nc1ccc(-n2nnc3cc(Cl)c(Cl)cc32)cc1

>  <result value>
54.8

$$$$
>  <molecule>
O=c1c2ccccc2oc2ccc(OCCCCCN3CCCCCC3)cc12

>  <result value>
21.3

$$$$

Given item CC(C)(C)c1nn(-c2ccccc2)c2c1COCN2Cc1ccc(Cl)cc1 , the value recorded as its growth is 47.5

growth measured on COc1ccc(-c2nnc(N3CCN(C(=O)CN4CCN(c5ccc(OC)cc5)CC4)CC3)nc2-c2ccc(OC)cc2)cc1 = -56.7

---

- System: SW-620 colon
- method summary: NCI-60 one-dose screen, 48 h (100 = growth as untreated, 0 = no growth, -100 = all killed)
- experimental setup: 10 µM unless noted
About 83,000 compounds went through this panel and 20% of them were active in at least one assay; those are over-represented in the sample as a whole.
measured attribute: growth (%)
Number only, in %; omit the unit.

These solved cases illustrate the format of a correct answer.
>  <compound>
COc1cc2c(cc1OCCCOc1cc3c(cc1OC)C(=O)N1CC(F)(F)C[C@H]1C=N3)N=C[C@@H]1CC(F)(F)CN1C2=O

>  <growth, %>
1.84

$$$$
>  <compound>
COc1ccc(NC(=O)c2sc3nc(C)c(C(C)=O)cc3c2N)cc1

>  <growth, %>
97

$$$$
>  <compound>
CC(=O)c1c(OCC#N)ccc2c(C)cc(=O)oc12

>  <growth, %>
96.8

$$$$

# evaluate next
// field: growth; key: CC(=O)c1cc2c(N)c(C(=O)Nc3ccccn3)sc2nc1C ; value = 96.9
